Data provenance: the supplement of paper PMC9732359

Listed below: protein stability index values for each entry.
- protocol summary: protein stability index of a GFP-peptide fusion (yeast GPS) (PSI 1-4); higher = more stable; sorted into four equal gates, so the index is relative within each strain
- measurement context: san1∆
// no unit string in output, number only

Solved entries (count: 2):
[
  {
    "sequence content": "VLYQSNATHDEDEFIVQ [SWP82]",
    "measured quantity": "protein stability index",
    "assay value": 3.11
  },
  {
    "sequence content": "LGLCLVIQIVTGIFMAM [COB]",
    "measured quantity": "protein stability index",
    "assay value": 1.23
  }
]

Reported protein stability index for QVPLQQTQAIAQQQQLS [YGR119C/NUP57] : what is it?
2.15

Can you check RLWLKKVMEEEEQDCKC [POP8] next?
3.07

###

- protocol summary: protein stability index of a GFP-peptide fusion (yeast GPS) (PSI 1-4); higher = more stable; sorted into four equal gates, so the index is relative within each strain
- measurement context: doa10∆
measured quantity: protein stability index
// no unit string in output, number only

[
  {
    "sequence content": "QRESQIGAAELNENARE [SNF12]",
    "assay value": 3.22
  },
  {
    "sequence content": "MSVPAIAPRRKRLADGL [DIS3]",
    "assay value": 3.37
  },
  {
    "sequence content": "PRLEKLINEILLKSNDP [RGR1]",
    "assay value": 1.68
  },
  {
    "sequence content": "DGSQQNLQQDKTNFQDV [REC8]",
    "assay value": 3.23
  },
  {
    "sequence content": "LKKNNYNSFPHSNLEKI [SIR4]",
    "assay value": 3.06
  }
]

Reported protein stability index for TYQLCVRLRSNVIKTGI [RPN3] : what is it?
3.25

Can you check ILLEPIYEVDITVHAPL [SNU114] next?
2.57

Can you check ENIAQMKPKAEKESDDG [SMC4] next?
3.1

Can you check VELTYSLNNSDSLISGV [BRR2] next?
2.73

###

- protocol summary: protein stability index of a GFP-peptide fusion (yeast GPS) (PSI 1-4); higher = more stable; sorted into four equal gates, so the index is relative within each strain
- measurement context: ubr1∆
measured quantity: protein stability index

Solved entries (count: 5):
[
  {
    "sequence content": "SEKNKRQSKSSGKSNTS [ITC1]",
    "protein stability index": 3.16
  },
  {
    "sequence content": "EVFSRPEWMILTCLPVP [RPO21]",
    "protein stability index": 1.67
  },
  {
    "sequence content": "DFIDTATRHVLMRQGVL [RPS3]",
    "protein stability index": 2.98
  },
  {
    "sequence content": "ATDISGELRDYIEDFLL [YJR042W/NUP85]",
    "protein stability index": 3.3
  },
  {
    "sequence content": "KEKEAAESPEEADVEMS [PUP2]",
    "protein stability index": 3.28
  }
]

Reported protein stability index for VDSLDPFSEGVTFSVMP [SMC4] : what is it?
3.1

Can you check YFKMFPASKHDKEVVYF [RPC34] next?
3.4

Can you check KVVKAIRIYFTEKDDNK [NUT1] next?
2.97

Can you check VKTKTIELIDYDKLPAG [RET1] next?
2.95

Can you check KHYLEDKLKVYKQAMNE [SNF5] next?
3.08

Can you check ENPTDNFIIWINSIDTT [GRR1] next?
2.74

Can you check DDRDHFGKKRLDLAGPL [RPB2] next?
3.31

Can you check LIPTIFRYITTWENEFL [PRP8] next?
2.21

Can you check FLKEVLSDLSSPVQDWN [YML103C/NUP188] next?
2.96

Can you check RAIYSYLSGAIPNQEVL [YDL116W/NUP84] next?
2.76

###

- protocol summary: protein stability index of a GFP-peptide fusion (yeast GPS) (PSI 1-4); higher = more stable; sorted into four equal gates, so the index is relative within each strain
- measurement context: doa10∆
Decide using protein stability index: a value greater than or equal to 2 is satisfied, a smaller one is not satisfied.

[
  {
    "sequence content": "LLRNLESKMRQQEAKYR [YDL088C/ASM4]",
    "class name": "not satisfied"
  }
]

Item ATDISGELRDYIEDFLL [YJR042W/NUP85] with protein stability index of 2 or above?
satisfied

Can you check SFVFGQAAAKPSLEKSS [YLR335W/NUP2] next?
not satisfied

Can you check PIFDYIHIDALELAGMD [SIR3] next?
not satisfied

Can you check FGFSSSGTAATGAASNQ [YOR098C/NUP1] next?
satisfied

Can you check GDIESLFEQLQTVSNKE [SRP54] next?
satisfied

Can you check GGTSLFGNTSTSSAPAQ [YGL172W/NUP49] next?
satisfied

Can you check DEEMLTSCTIPKAVVDH [GAL11] next?
satisfied

Can you check MFSPLVDSGSNDAMAGG [RPO21] next?
satisfied

Can you check PGHVNFMDETAVALAAS [SNU114] next?
satisfied

###

Listed below: protein stability index values for each entry.
- protocol summary: protein stability index of a GFP-peptide fusion (yeast GPS) (PSI 1-4); higher = more stable; sorted into four equal gates, so the index is relative within each strain
- measurement context: doa10∆
// no unit string in output, number only

[
  {
    "sequence content": "VDKALIAEIKKTPLLKQ [RPL6A]",
    "assay value": 2.64
  },
  {
    "sequence content": "RTVAGFSNVELPQCIIP [ARP7]",
    "assay value": 2.8
  }
]

Reported protein stability index for FAKEHNATVNLAMEAIL [YJR042W/NUP85] : what is it?
2.93

Can you check YEAYPNTSLPPSILEDS [FAS1] next?
2.15

Can you check ALRLSMEEEQQRQERLR [RPN10] next?
3.33

Can you check LLSQFGIKVLPETCLFV [YML103C/NUP188] next?
2.1

Can you check AVINIRDDGKRELLVEG [RPO31] next?
3.56

Can you check SDIVLDKKVTLITSEMF [SIN4] next?
1.69

###

- protocol summary: protein stability index of a GFP-peptide fusion (yeast GPS) (PSI 1-4); higher = more stable; sorted into four equal gates, so the index is relative within each strain
- measurement context: ubr1∆
Listed below: protein stability index values for each entry.
// no unit string in output, number only

Solved entries (count: 4):
[
  {
    "sequence content": "ANIELTWAEGTFEQFKD [RPC37]",
    "protein stability index": 3.32
  },
  {
    "sequence content": "KLYQTEPSGIYSSWSAQ [PRE6]",
    "protein stability index": 1.46
  },
  {
    "sequence content": "PESIRQKKARTILQHLS [PRP8]",
    "protein stability index": 1.21
  },
  {
    "sequence content": "LKPDLNKITNQGVTCLH [NAS6]",
    "protein stability index": 2.38
  }
]

Reported protein stability index for ENMWPFSYQEVEFKLPK [CDC53] : what is it?
2.47

Can you check MDRDSESEEAETKDIRK [SRB4] next?
2.95

Can you check ETLSIFTNVPLNLEQVT [YJL039C/NUP192] next?
2.42

Can you check RIFKITEKLSPLASEES [YGL100W/SEH1] next?
2.57

###

Listed below: protein stability index values for each entry.
- protocol summary: protein stability index of a GFP-peptide fusion (yeast GPS) (PSI 1-4); higher = more stable; sorted into four equal gates, so the index is relative within each strain
- measurement context: ubr1∆
// no unit string in output, number only

Solved entries (count: 5):
[
  {
    "sequence content": "GTCNGDITTSIMDNFLE [RPN1]",
    "assay value": 2.82
  },
  {
    "sequence content": "TLSHLRRTNTPIGRDGK [RPB2]",
    "assay value": 2.08
  },
  {
    "sequence content": "KDILVKTGITKKDEDEE [PRE9]",
    "assay value": 3.17
  },
  {
    "sequence content": "RMRNRALREMRKSDQQD [POP1]",
    "assay value": 3.13
  },
  {
    "sequence content": "ISKHSKQAIYTRATASE [RPS25A]",
    "assay value": 1.85
  }
]

Reported protein stability index for IMDNDPVLFNRQPSLHK [RPO21] : what is it?
1.84

Can you check ITKMLASDESLLRYGGA [RPN2] next?
3.82

Can you check AIITDDLDTVLKKDIES [SRP72] next?
2.43
